target: T1, human melanocortin 4 receptor (human, UniProt P32245 1-332); assay: 125I-NDP-MSH competition, HEK293 cells
T1 construct: whole, on cells; the assays used the receptor on HEK293 cells; also called hMC4R
T1 sequence (P32245 whole entry): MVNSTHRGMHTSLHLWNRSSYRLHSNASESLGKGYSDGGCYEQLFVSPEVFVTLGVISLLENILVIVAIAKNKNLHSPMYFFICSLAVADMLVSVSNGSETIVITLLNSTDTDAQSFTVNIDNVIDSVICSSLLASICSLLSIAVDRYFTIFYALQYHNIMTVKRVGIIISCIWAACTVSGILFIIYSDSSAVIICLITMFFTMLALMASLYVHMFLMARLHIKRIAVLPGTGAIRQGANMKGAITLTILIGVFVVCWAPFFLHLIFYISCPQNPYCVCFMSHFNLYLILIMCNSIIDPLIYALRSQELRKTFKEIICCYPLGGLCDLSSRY
Square brackets hold non-standard residues; d marks the D form. Dap = NC[C@H](N)C(=O)O
Hi there, I'd appreciate the recorded pIC50 for every entry that follows.
Scale: negative log10 of molar concentration, which is what pIC50 denotes.

Looking for the measured pIC50 of cyclo(PRFFNVF[dP]) (Ala115Val SNP in the Asn scaffold; also called c[Pro-Arg-Phe-Phe-Asn-Val-Phe-DPro]) [ZMK 2-82] , can you help?
6.60

Param item = cyclo(PRYF[Dap]AF[dP]) (Phe112Tyr SNP in the Dap scaffold; also called c[Pro-Arg-Tyr-Phe-Dap-Ala-Phe-DPro]) [ZMK 2-112] ; retrieve measured pIC50.
5.99

Sample cyclo(PHFF[Dap]AF[dP]) (Arg111His SNP in the Dap scaffold; also called c[Pro-His-Phe-Phe-Dap-Ala-Phe-DPro]) [ZMK 2-99] — what was its pIC50?
5.57

# pIC50 lookup, item cyclo(PCFFNAF[dP]) (Arg111Cys SNP in the Asn scaffold; also called c[Pro-Cys-Phe-Phe-Asn-Ala-Phe-DPro]) [ZMK 3-18]
4.71

Hey, just so you know, these numbers are from patent US20210179666A1.
